The measurements presented in this section are drawn from PubChem BioAssay (NCI).

Give TGI for every item shown.
Test system: EKVX NSCLC
method: NCI tumour cell line growth inhibition, 48 h

Sure, the documented TGI for CC[C@@]1(O)C(=O)OCc2c1cc1n(c2=O)Cc2c-1nc1ccccc1c2/C=N\NC(=O)C[n+]1ccccc1 is > 100 µM

Sure, the documented TGI for O=C(O)c1cccc(Nc2c(C(=O)O)cccc2[N+](=O)[O-])c1 is > 100 µM

Sure, the documented TGI for Nc1cc(Cl)cc2cc(Cl)cnc12 is > 100 µM

---

System: HT29 colon
method: NCI tumour cell line growth inhibition, 48 h
Give TGI for every item shown.

Sure, the documented TGI for O=C1c2ccccc2C(=O)C2NC(CCCCCSSCCCCCC3=NC4C(=O)c5ccccc5C(=O)C4N3)=NC12 (stereo unspecified) is > 100 µM

Sure, the documented TGI for CCN1C(=O)CNc2ncc(-c3ccc(-c4ncn[nH]4)nc3C)nc21 is 11.6 µM

Sure, the documented TGI for CCS(=O)(=O)c1ccc(OC)c(Nc2ncc(-c3cccc(C(C)=O)c3)o2)c1 is > 25 µM

Sure, the documented TGI for O=C(N/N=C/c1cccc(O)c1O)c1ccccc1 is > 100 µM

Sure, the documented TGI for CCc1[nH]c(=O)nc(N)c1-c1ccc(N2CCCCC2)c([N+](=O)[O-])c1 is > 100 µM

Sure, the documented TGI for CC(=O)C(C(=O)c1ccc(C)cc1)[C@@H]1OC(C)(C)O[C@@H]1[C@H]1COC(C)(C)O1 (stereo partly specified) is 20 µM

---

Give TGI for every item shown.
System: UO-31 renal
method: NCI tumour cell line growth inhibition, 48 h

Sure, the documented TGI for O=C(O)c1cccc(Nc2c(C(=O)O)cccc2[N+](=O)[O-])c1 is > 100 µM

Sure, the documented TGI for CC[O-].CC[O-].O=C1c2ccccc2C(=O)c2c(O)ccc([O-])c21.O=C1c2ccccc2C(=O)c2c(O)ccc([O-])c21.[Ti+4] is > 100 µM

Sure, the documented TGI for CN1CCC23c4c5ccc(Oc6nnnn6-c6ccccc6)c4OC2c2[nH]c4ccccc4c2CC3(O)C1C5 (configuration not stated) is 3.18 µM

Sure, the documented TGI for COc1cc2c(cc1C)NC(=O)/C2=C/c1cccnc1 is 26.2 µM

Sure, the documented TGI for COc1cc2oc(-c3ccc(O)cc3)cc(=O)c2c(OC)c1OC is > 100 µM

Sure, the documented TGI for CN/N=C(/CCN1CCCC1)CC(c1ccccc1)c1c(O)c2ccccc2oc1=O (configuration not stated) is > 100 µM

Sure, the documented TGI for CC1=NN(c2cccc(S(=O)(=O)O)c2)C2(C1)C(Cl)C(=O)N2c1nc2ccccc2s1 (configuration not stated) is 8.27 µM

Sure, the documented TGI for Cc1cc(SCC(=O)c2ccccc2)nc2ccccc12 is > 100 µM

Sure, the documented TGI for COC(=O)C(=O)C(C(=O)C(=O)Nc1ccccc1C(N)=O)c1nc2ccc(Cl)cc2[nH]c1=O (configuration not stated) is > 100 µM

Sure, the documented TGI for COC(=O)C1=NC(=S)NC(c2ccccc2)C1c1nc2ccccc2s1 (configuration not stated) is > 100 µM

Sure, the documented TGI for CC(=O)O[C@H]1C(=O)[C@@]2(C)[C@H]([C@H](OC(=O)c3ccccc3)[C@]3(O)C[C@H](OC(=O)[C@H](O)[C@@H](NC(=O)c4ccc(N)cc4)c4ccccc4)C(C)=C1C3(C)C)[C@]1(OC(C)=O)CO[C@@H]1C[C@@H]2O is > 50 µM

Sure, the documented TGI for CC(=O)[CH-]C(=O)c1ccccc1.CC(=O)[CH-]C(=O)c1ccccc1.O=C([O-])c1ccc([O-])cc1.O=C([O-])c1ccc([O-])cc1.[Ti+4] is 76.4 µM

Sure, the documented TGI for CCc1[nH]c(=O)nc(N)c1-c1ccc(N2CCCCC2)c([N+](=O)[O-])c1 is > 100 µM

Sure, the documented TGI for NC1=NN(c2ccccc2)C(=O)C1C(=O)CCC(=O)Nc1cccc(C(F)(F)F)c1 (configuration not stated) is > 100 µM

Sure, the documented TGI for CN(C)CCCn1c2c(c3ccccc3c1=O)C(=O)c1ccccc1-2 is 23.5 µM

Sure, the documented TGI for CCN(CC)CCCC(C)Nc1c(C)cnc2cc(Cl)c(C)cc12 (configuration not stated) is > 78.5 µM

Sure, the documented TGI for CCCCN=C(N)c1ccc(OCCSCCOc2ccc(C(N)=NCCCC)cc2)cc1 is > 100 µM

Sure, the documented TGI for CC1CN1CC(O)C(O)CN1CC1C (configuration not stated) is 10.9 µM

Sure, the documented TGI for C/C(Cl)=N/OC(=O)Nc1ccc(F)c([N+](=O)[O-])c1 is 20.5 µM

Sure, the documented TGI for CC(=O)OCC(OC(C)=O)C1C[C@H]2O[C@@H]3[C@H](C[C@H]2O1)O[C@@]1(C[C@@H]3C)C[C@H](C)[C@@H]2O[C@]3(C[C@@H]2O1)C[C@H]1O[C@H]2[C@H](C)[C@H]4OC(=O)C[C@H]5CC[C@@H]6OC7[C@H]8O[C@]9(CC[C@H]%10CC(=O)[C@H](CC[C@H]%11C[C@@H](C)C(=O)C(C[C@@H]4O[C@H]2C[C@H]1O3)O%11)O%10)CC8O[C@@H]7[C@@H](O9)[C@H]6O5 (some centres not stated) is > 1 µM

Sure, the documented TGI for N#Cc1nc(C2OC(COC(=O)c3ccccc3)C(OC(=O)c3ccccc3)C2OC(=O)c2ccccc2)oc1N (configuration not stated) is 66.8 µM

Sure, the documented TGI for CCN(CC)c1ccc(C(=N)c2ccc(N(CC)CC)cc2)cc1 is 2.64 µM

Sure, the documented TGI for O=C(CP(=O)(c1ccccc1)c1ccccc1)c1cccc(C(=O)CP(=O)(c2ccccc2)c2ccccc2)c1 is > 100 µM

Sure, the documented TGI for O=C(c1cccc(O)c1O)c1cn(Cc2ccc(F)cc2)c2cccc(O)c12 is 5.24 µM

Sure, the documented TGI for CN(C)CCNC(=O)c1cccc(C(=O)Nc2ccccc2)c1[N+](=O)[O-] is > 100 µM

Sure, the documented TGI for O=C(Nc1ccc(Cl)cc1)c1cc(-c2ccc(F)cc2)c2sc(=O)[nH]c2n1 is 3.89 µM

Sure, the documented TGI for NCC(Cl)C(O)c1cnc(N)[nH]1 (configuration not stated) is 6.38 µM

Sure, the documented TGI for Cn1c(-c2cccs2)cc(-c2cccs2)c1-c1cccs1 is > 100 µM

Sure, the documented TGI for COc1ccc(N2C(=O)C3c4[nH]c5ccc(C)cc5c4C4CCC(C(C)(C)C)CC4C3C2=O)cc1 (configuration not stated) is 40.3 µM

Sure, the documented TGI for O=C(O)CC1OCC=C2CN3CCC45c6ccccc6NC4C1C2CC35 (configuration not stated) is > 100 µM

Sure, the documented TGI for CCOC(=O)Sc1ncnc2nc[nH]c12 is > 100 µM

Sure, the documented TGI for O=C(O)CP(=S)(S)c1ccccc1 (configuration not stated) is > 100 µM
